# Assay text: Azacitidine plasma pharmacokinetics, non-compartmental analysis
# Format: in vivo, patients
# Measurement parameters: human, plasma, intravenous, azacitidine/oxaliplatin 40/30 mg/m^2; C1D1; n = 3; mean (SD)

Molecule: Nc1ncn([C@@H]2O[C@H](CO)[C@@H](O)[C@H]2O)c(=O)n1
Value units: ng·h/mL
AUC: 97.5

###

# Assay text: Azacitidine plasma pharmacokinetics, non-compartmental analysis
# Type: in vivo, patients
# Measurement parameters: human, plasma, intravenous, azacitidine/oxaliplatin 20/30 mg/m^2; C1D1; n = 3; mean (SD); read-out: AUCinf

Compound: Nc1ncn([C@@H]2O[C@H](CO)[C@@H](O)[C@H]2O)c(=O)n1 [azacitidine]
Value units: ng·h/mL
AUC(0-inf): 125

###

# Assay text: Azacitidine plasma pharmacokinetics, non-compartmental analysis
# Assay type: in vivo, patients
# Measurement parameters: human, plasma, intravenous, azacitidine/oxaliplatin 20/15 mg/m^2; C1D1; n = 3; mean (SD); read-out: AUCinf
# Description: Compartmental and non-compartmental modeling were used to derive pharmacokinetic parameters, including Cmax (maximum concentration), AUC (area under the curve), t1/2 (half-life of elimination), Vd (volume of distribution), and CL (clearance).
Measurement label: AUC(0-inf) (µg·h/mL)

Molecule: Nc1ncn([C@@H]2O[C@H](CO)[C@@H](O)[C@H]2O)c(=O)n1 [azacitidine]
Value units: µg·h/mL
Result value: 0.221

###

# Assay text: Azacitidine plasma pharmacokinetics, non-compartmental analysis
# Format: in vivo, patients
# Measurement parameters: human, plasma, intravenous, azacitidine/oxaliplatin 20/22.5 mg/m^2; C1D1; n = 3; mean (SD)
# From the text: Compartmental and non-compartmental modeling were used to derive pharmacokinetic parameters, including Cmax (maximum concentration), AUC (area under the curve), t1/2 (half-life of elimination), Vd (volume of distribution), and CL (clearance).
Measurement label: half-life (h)

Molecule: Nc1ncn([C@@H]2O[C@H](CO)[C@@H](O)[C@H]2O)c(=O)n1
Measurement label: half-life
Result value: 10.9

###

# Assay text: Azacitidine plasma pharmacokinetics, non-compartmental analysis
# Format: in vivo, patients
# Measurement parameters: human, plasma, intravenous, azacitidine/oxaliplatin 20/22.5 mg/m^2; C1D5; n = 3; mean (SD)
# From the text: Compartmental and non-compartmental modeling were used to derive pharmacokinetic parameters, including Cmax (maximum concentration), AUC (area under the curve), t1/2 (half-life of elimination), Vd (volume of distribution), and CL (clearance).
Measurement label: half-life (h)

Molecule: Nc1ncn([C@@H]2O[C@H](CO)[C@@H](O)[C@H]2O)c(=O)n1
Measurement label: half-life
Result value: 1.27

###

# Assay text: Azacitidine plasma pharmacokinetics, non-compartmental analysis
# Format: in vivo, patients
# Measurement parameters: human, plasma, intravenous, azacitidine/oxaliplatin 20/30 mg/m^2; C1D5; n = 3; mean (SD)

Molecule: Nc1ncn([C@@H]2O[C@H](CO)[C@@H](O)[C@H]2O)c(=O)n1 [azacitidine]
Cmax, ng/mL: 214

###

# Assay text: Azacitidine plasma pharmacokinetics, non-compartmental analysis
# Assay type: in vivo, patients
# Measurement parameters: human, plasma, intravenous, azacitidine/oxaliplatin 50/30 mg/m^2; C1D5; n = 22; mean (SD)
Measurement label: AUC (ng·h/mL)

Molecule: Nc1ncn([C@@H]2O[C@H](CO)[C@@H](O)[C@H]2O)c(=O)n1
Result value: 426
